Entry source: paper PMC4068216

Target Entity: LAT3 (Homo sapiens, UniProt O75387)
Sequence (O75387 whole entry): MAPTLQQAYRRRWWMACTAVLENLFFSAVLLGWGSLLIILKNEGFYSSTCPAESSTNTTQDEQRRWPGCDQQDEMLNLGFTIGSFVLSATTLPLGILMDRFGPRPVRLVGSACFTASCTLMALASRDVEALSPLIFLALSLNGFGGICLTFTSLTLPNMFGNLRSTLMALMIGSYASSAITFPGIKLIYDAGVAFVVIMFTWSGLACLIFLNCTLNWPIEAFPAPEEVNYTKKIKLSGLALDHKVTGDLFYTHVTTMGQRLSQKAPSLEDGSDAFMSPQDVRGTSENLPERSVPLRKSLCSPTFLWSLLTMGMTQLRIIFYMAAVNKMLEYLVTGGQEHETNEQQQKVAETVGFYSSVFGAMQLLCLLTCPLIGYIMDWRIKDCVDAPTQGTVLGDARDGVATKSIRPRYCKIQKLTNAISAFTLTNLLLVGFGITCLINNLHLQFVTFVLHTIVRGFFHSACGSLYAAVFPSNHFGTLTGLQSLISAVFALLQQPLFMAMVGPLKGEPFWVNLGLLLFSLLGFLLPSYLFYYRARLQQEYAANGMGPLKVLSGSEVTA
Test Name: [3H]-L-leucine uptake assay in LNCaP cells
Property Name: IC50

molecule="NC1(C(=O)O)CC2CCC1C2 (stereo not shown) [BCH]" target_entity="LAT3 (Homo sapiens, UniProt O75387)" value_reported="4.06 mM"
